# Tested on: SF-539 CNS
# test_description: NCI tumour cell line growth inhibition, 48 h
Item-by-item account of TGI

compound: O=C1[C@@H]2C(c3cccc([N+](=O)[O-])c3)=NO[C@@H]2C(=O)N1c1ccc(Cc2ccc(N3C(=O)[C@H]4C(c5cccc([N+](=O)[O-])c5)=NO[C@H]4C3=O)cc2)cc1
TGI: > 100 µM

compound: CN(NC(=O)/C(=C/c1ccc(Cl)cc1)NC(=O)c1ccccc1)c1cn[nH]c(=O)c1Cl
TGI: > 100 µM

compound: CCCCCOc1ccc(C=Nc2ccc(-c3ccc(N=Cc4ccc(OCCCCC)cc4)c(OC)c3)cc2OC)cc1
TGI: > 100 µM

compound: O=C1c2ccccc2C(=O)c2c1c(=O)c(=O)c1ccccc1c(=O)n2Cc1ccccc1
TGI: > 100 µM

compound: C=CCSc1nc2c(N)ncnc2n1C1OC(CO)C(O)C1O (stereo not drawn)
TGI: > 100 µM

compound: CC1=C(C(=O)OCc2ccncc2)C(C2=C(C)SCCS2)C(C(=O)OCc2ccncc2)=C(C)N1
TGI: 33 µM

compound: CC(C)=CCCC(C)[C@H]1CC(O)C2(C)C3=CCC4C(C)(C)[C@@H](O)CC[C@]4(C)C3=CC[C@]12C (stereo partly drawn)
TGI: 6.58 µM

compound: C=C1c2c(C)nn(-c3ccc(OC)cc3)c2N(C)C23C[C@@H]1C1(C)c4c(C)nn(-c5ccc(OC)cc5)c4N(C)C(C)(C[C@H]12)C3 (stereo partly drawn)
TGI: 16.8 µM

* * *

# Test system: OVCAR-5 ovarian
# test_description: NCI tumour cell line growth inhibition, 48 h
Listed compounds paired with reported GI50

compound: CN1CCCC1c1cccnc1.O=C(O)c1ccccc1O.O=C([O-])c1ccccc1[OH2+].O=C([O-])c1ccccc1[OH2+].O=C([O-])c1ccccc1[OH2+].[Cu+2] (centres undefined)
tested_system: OVCAR-5 ovarian
GI50: > 100 µM
--
compound: Cn1c(=O)n(CCCO)c(=O)c2c1nc(Oc1cccc(OC(F)(F)F)c1)n2Cc1ccc(Cl)cc1
tested_system: OVCAR-5 ovarian
GI50: 13.1 µM
--
compound: COC(=O)C1=C(OC(=O)c2ccccc2)C(C(=O)OC)[C@]2(O)[C@@H](C(=O)OC)C1CC(c1ccccc1OC)[C@@H]2C(=O)OC (some centres undefined)
tested_system: OVCAR-5 ovarian
GI50: 41.5 µM
--
compound: O=C(/C=C/c1cc2ccccc2[nH]c1=O)c1ccc(Cl)cc1
tested_system: OVCAR-5 ovarian
GI50: 38.2 µM
--
compound: Nc1ccccc1C#C/C=C\C#Cc1cnccn1
tested_system: OVCAR-5 ovarian
GI50: 18.8 µM
--
compound: CCCSc1ccc2nc(NC(=O)OC)[nH]c2c1
tested_system: OVCAR-5 ovarian
GI50: 2.08 µM
--
compound: O=C1C(Cl)=C(Nc2cccc(O)c2)C(=O)N1CCc1ccccc1
tested_system: OVCAR-5 ovarian
GI50: 20.7 µM
--
compound: O=C(NC(=S)Nc1ccccn1)c1ccccc1
tested_system: OVCAR-5 ovarian
GI50: > 100 µM
--
compound: CCOC(=O)Cc1csc(NC(=O)COC(=O)c2ccc(N)cc2)n1
tested_system: OVCAR-5 ovarian
GI50: 59.3 µM

* * *

# reported TGI; entries follow
# System: HOP-92 NSCLC
# test_description: NCI tumour cell line growth inhibition, 48 h

structure_smiles: O=C(NO)C(=O)Nc1cc(Cl)ccc1Cl
TGI: > 100 µM
//
structure_smiles: CN(/N=C(\C(=O)O)c1ccccc1)C1=NCCCCN1
TGI: > 100 µM
//
structure_smiles: O=C(/C=C/c1cc2ccccc2[nH]c1=O)c1ccc(Cl)cc1
TGI: 76.8 µM
//
structure_smiles: COc1ccc(-c2cn3c(nc4ccccc43)c(/C=C/c3cccs3)n2)cc1
TGI: > 100 µM
//
structure_smiles: CCc1c(-c2ccc(OC)cc2)c(=O)oc2cc(O)ccc12
TGI: > 100 µM
//
structure_smiles: O=C(Nc1cccc(-n2ccc3c(NC(=O)c4ccccc4)nccc32)c1)Nc1ccc(Cl)c(C(F)(F)F)c1
TGI: 5.74 µM

* * *

TGI listing for selected compounds.
# Tested on: MALME-3M melanoma
# test_description: NCI tumour cell line growth inhibition, 48 h

compound: N#C/C(C(=O)Nc1ccccc1)=C(/N)N1CCCC1
tested_system: MALME-3M melanoma
TGI: > 100 µM
--
compound: CCOP(=S)(OCC)Oc1ccc2c(c1)OC(=O)C1(Cl)C2(C)C2(Cl)C(=O)Oc3cc(OP(=S)(OCC)OCC)ccc3C12C (stereo not given)
tested_system: MALME-3M melanoma
TGI: 43.8 µM
--
compound: CC1(C)OC(=O)C(c2cccs2)C(=O)O1
tested_system: MALME-3M melanoma
TGI: > 100 µM
--
compound: Cc1ccc(C)c2c1C/C(=C\c1ccccc1C(=O)O)C2=O
tested_system: MALME-3M melanoma
TGI: > 100 µM
--
compound: CCNCCCn1c2c(c3ccc(F)cc3c1=O)C(=O)c1cc(OC)cnc1-2
tested_system: MALME-3M melanoma
TGI: 1.44 µM

* * *

# Test system: DMS 273 small cell lung
# test_description: NCI tumour cell line growth inhibition, 48 h

compound: CC1NS(=O)(=O)N(C)C1=O (stereo not drawn)
tested_system: DMS 273 small cell lung
TGI: > 100 µM

compound: N#Cc1c2c(c(Cl)n3c1nc1ccccc13)CCCC2
tested_system: DMS 273 small cell lung
TGI: 3.74 µM

compound: CCCCC1CC(c2ccc(Cl)cc2)=NO1 (stereo not drawn)
tested_system: DMS 273 small cell lung
TGI: > 100 µM

compound: Nc1n[n+](=O)c2ccccc2n1O
tested_system: DMS 273 small cell lung
TGI: > 100 µM

compound: Cc1c(NC(=O)/C(=N/NC(=S)N=N)C2C(=O)CC(C)(C)CC2=O)c(O)c2ccccc2c1O
tested_system: DMS 273 small cell lung
TGI: 22.4 µM

compound: CCCCc1c2c(nc3c1CCCC3=O)C(=O)CCC2
tested_system: DMS 273 small cell lung
TGI: > 100 µM

compound: COC(=O)C1Cc2c([nH]c3ccccc23)C(C2CCCCC2)N1 (stereo not drawn)
tested_system: DMS 273 small cell lung
TGI: > 100 µM

compound: O=C1C=CC(=O)c2c(O)ccc(O)c21
tested_system: DMS 273 small cell lung
TGI: 7.55 µM

* * *

Each item that follows carries a reported TGI.
# System: HOP-62 NSCLC
# test_description: NCI tumour cell line growth inhibition, 48 h
*1 amine or outer side, *2 acyl side, *3 side chain or, on linkers, in order; H or OH if unused. Where a SMILES comes first, the peptide text is derived from it. [ ]: non-standard residue; d: D form. ξ: configuration not given here. Ile(3ξ) = CCC(C)[C@H](N)C(=O)O; X33 = C=CCC(O[*:1])C(=O)[*:2]; NMeV = CN[C@H](C(=O)O)C(C)C; NMeA = CN[C@@H](C)C(=O)O; βAla = NCCC(=O)O

compound: Cc1nn(C(=O)c2ccccc2O)c2c1C(c1ccccc1O)SC(N)=N2 (centres undefined)
TGI: > 10 µM
//
compound: CN(NC(=O)/C(=C/c1ccc(Cl)cc1)NC(=O)c1ccccc1)c1cn[nH]c(=O)c1Cl
TGI: > 100 µM
//
compound: COc1cc(/C=C2/SC(c3ccccc3)N(c3cccc(NC(C)=O)c3)C2=O)cc(OC)c1OC (centres undefined)
TGI: > 100 µM
//
compound: N#Cc1c(-c2ccc(Cl)cc2)csc1NC(=O)Nc1ccc(Cl)c(C(F)(F)F)c1
TGI: 4.42 µM
//
compound: COc1ccc(S(=O)Cc2cc(OC)c(OC)c(OC)c2)cc1 (centres undefined)
TGI: > 100 µM
//
compound: C=CCC1OC(=O)CCNC(=O)[C@H](C)N(C)C(=O)[C@H](C(C)C)N(C)C(=O)[C@H](C(C)CC)NC(=O)[C@@H]2CCCN2C1=O (some centres undefined) (cyclo([Ile(3ξ)][NMeV][NMeA][βAla][X33]P))
TGI: > 21 µM
//
compound: COc1ccc(Nc2nn3c(=O)c4c(C)c(C)sc4nc3s2)cc1
TGI: 76.8 µM
//
compound: O=C1c2ccccc2C(=O)c2c1c(=O)c(=O)c1ccccc1c(=O)n2Cc1ccccc1
TGI: > 100 µM
//
compound: Sc1ccccc1S
TGI: > 100 µM
//
compound: COc1cc(C2NCCC(c3ccccc3)(c3ccccc3)N2)cc(OC)c1OC (centres undefined)
TGI: > 100 µM
//
compound: CCCOP1(=O)C=C(O)C(Cl)=C(C)C1 (centres undefined)
TGI: > 100 µM
//
compound: COC(=O)C1=C(OC(=O)c2ccccc2)C(C(=O)OC)[C@]2(O)[C@@H](C(=O)OC)C1CC(c1ccccc1OC)[C@@H]2C(=O)OC (some centres undefined)
TGI: > 100 µM
//
compound: CC(=O)[CH-]C(=O)c1ccccc1.CC(=O)[CH-]C(=O)c1ccccc1.CCN(CC)CC[O-].CCN(CC)CC[O-].Cl.[Hf+4]
TGI: > 100 µM
//
compound: N#Cc1c(-c2ccc([N+](=O)[O-])cc2)cc(-c2ccc(Nc3ccnc4cc(C(F)(F)F)ccc34)cc2)[nH]c1=O
TGI: > 100 µM
//
compound: CCOP(=S)(OCC)Oc1ccc2c(c1)OC(=O)C1(Cl)C2(C)C2(Cl)C(=O)Oc3cc(OP(=S)(OCC)OCC)ccc3C12C (centres undefined)
TGI: 40.3 µM
//
compound: COc1ccc(C23OCC(Cc4cc(OC)c(OC)cc42)C3COC(C)=O)cc1OC (centres undefined)
TGI: > 100 µM
//
compound: COc1ccc(/C=C/C(=O)C(C)(C)C)cc1OC
TGI: > 100 µM
//
compound: CCOC(=O)c1ccc2c(c1)[n+](=O)c(C(=O)C1CCCS1)c(C(F)(F)F)n2[O-] (centres undefined)
TGI: 0.82 µM
//
compound: COC1CCN(N(C)C)O1 (centres undefined)
TGI: > 100 µM

Origin of measurements: PubChem BioAssay (NCI)
